- Tested on: KM12 colon
- assay.text: NCI-60 one-dose screen, 48 h (100 = growth as untreated, 0 = no growth, -100 = all killed)
- condition.description: 10 µM unless noted
This is part of a sample that, as a whole, favours compounds with a hit. Of some 83,000 tested, about 20% had one in any assay.
Just a reminder that ties go to class 0: only growth strictly below 40% counts as class 1.

Problem: Regarding COc1ccccc1NC(=O)OCC12COCN1COC2 , kindly confirm whether its growth is beneath 40%.
Result: class 0

Problem: Regarding O=C(c1ccc(C(F)(F)F)c(Cl)c1)N(Cc1ccc(Cl)cc1)c1ccc(-c2cc(C(F)(F)F)[nH]n2)c(O)c1 , kindly confirm whether its growth is beneath 40%.
Result: class 1

Problem: Regarding COc1c(B(O)O)cccc1-c1nc2ccc3[nH]ncc3c2c2c1CCCC2 , kindly confirm whether its growth is beneath 40%.
Result: class 1

Problem: Regarding O=C1/C(=C\c2cccn2Cc2ccc(F)cc2)c2ccccc2N1c1c(Cl)cccc1Cl , kindly confirm whether its growth is beneath 40%.
Result: class 0

Problem: Regarding O=C1C(Cl)=C(N/N=c2/[nH][nH]/c(=N/NC3=C(Cl)C(=O)c4ccccc4C3=O)c3ccccc23)C(=O)c2ccccc21 , kindly confirm whether its growth is beneath 40%.
Result: class 1

Problem: Regarding CCOP(=O)(O)OP(=O)(O)OCC , kindly confirm whether its growth is beneath 40%.
Result: class 0

Problem: Regarding COc1ccc(/C(=C\c2ccc3c(c2)OCO3)C(=O)Nc2nc3ccccc3s2)cc1 , kindly confirm whether its growth is beneath 40%.
Result: class 0

Problem: Regarding CCN(CC)CCCCCCCNc1cc(OC)cc2c(C)ccnc12 , kindly confirm whether its growth is beneath 40%.
Result: class 0

Problem: Regarding O=C(C(=O)c1cccnc1)c1cccnc1 , kindly confirm whether its growth is beneath 40%.
Result: class 0

Problem: Regarding Nc1ccc(C(OC(=O)c2cc3ccccc3c(Cc3c(O)c(C(=O)OC(c4ccc(N)cc4)(c4ccc(N)cc4)c4ccc(N)cc4)cc4ccccc34)c2O)(c2ccc(N)cc2)c2ccc(N)cc2)cc1 , kindly confirm whether its growth is beneath 40%.
Result: class 1

Problem: Regarding CC(COC(=O)c1ccccc1)N1CC2CCC(C1)O2 (stereo not given) , kindly confirm whether its growth is beneath 40%.
Result: class 0

Problem: Regarding C=CCn1c(C)nc2cc(Nc3nc(Nc4ccc5nc(C)n(CC=C)c5c4)nc4ccccc34)ccc21 , kindly confirm whether its growth is beneath 40%.
Result: class 0

Problem: Regarding COc1ccc(-c2oc(=O)ccc2-c2cc(OC)c(OC)c(OC)c2)cc1F , kindly confirm whether its growth is beneath 40%.
Result: class 0

Problem: Regarding O=C(CI)NCCNc1cccc2c(S(=O)(=O)O)cccc12 , kindly confirm whether its growth is beneath 40%.
Result: class 0

Problem: Regarding CC(=O)c1c(O)c(C)c(O)c2c1OC1=CC(=O)/C(=C(/C)N)C(=O)C12C (stereo not given) , kindly confirm whether its growth is beneath 40%.
Result: class 0

Problem: Regarding CS(=O)(=O)Nc1cc(-c2cc3ncc(C#N)c(Nc4ccc(Oc5ccccc5)c(Cl)c4)c3s2)cnc1Cl , kindly confirm whether its growth is beneath 40%.
Result: class 0

Problem: Regarding O=C(Nc1ccc(OS(=O)(=O)c2ccc(F)cc2)cc1)C12CC3CC(CC(C3)C1)C2 , kindly confirm whether its growth is beneath 40%.
Result: class 1

Problem: Regarding CCN(CC)CCCC(C)Nc1cnc(C(=O)Nc2cccc3ccc(OC)nc23)cn1 (stereo not given) , kindly confirm whether its growth is beneath 40%.
Result: class 1

Problem: Regarding COc1ccc(-c2nsc3c2NC(=O)CC3c2cccc(F)c2)cc1 (stereo not given) , kindly confirm whether its growth is beneath 40%.
Result: class 1

---

- System: T-47D breast
- assay.text: NCI-60 one-dose screen, 48 h (100 = growth as untreated, 0 = no growth, -100 = all killed)
- condition.description: 10 µM unless noted
About 83,000 compounds went through this panel and 20% of them were active in at least one assay; those are over-represented in the sample as a whole.
Just a reminder that ties go to Condition not met: only growth strictly below 90% counts as Condition met.

Problem: Regarding Cc1ccc(NC(=O)Cn2nncc2CN2C(=O)CSC2=O)cc1C , kindly confirm whether its growth is beneath 90%.
Result: Condition not met

Problem: Regarding COc1ccc(NC(=O)c2ccc(C(F)(F)F)nc2Nc2ccc(Cl)cc2C)cc1Cl , kindly confirm whether its growth is beneath 90%.
Result: Condition met

Problem: Regarding CN(CCO)c1ccc(N2Cc3ccccc3OC3=C2C(=O)c2c(O)ccc(O)c2C3=O)cn1 , kindly confirm whether its growth is beneath 90%.
Result: Condition met

Problem: Regarding CC(=O)OC1Oc2ccccc2-c2oc3nc(=N)n(C)c-3cc21 (stereo unspecified) , kindly confirm whether its growth is beneath 90%.
Result: Condition not met

Problem: Regarding CCC(=O)NC(O)C(Cl)(Cl)C(C)Cl (stereo unspecified) , kindly confirm whether its growth is beneath 90%.
Result: Condition met

Problem: Regarding Cc1cc(C)c(C#N)c(SCC(=O)c2sc3c(C#N)c(C)cc(C)[n+]3c2[O-])n1 , kindly confirm whether its growth is beneath 90%.
Result: Condition met

Problem: Regarding COc1c(C(=O)/C=C/c2ccc(C)o2)c(O)cc2occc12 , kindly confirm whether its growth is beneath 90%.
Result: Condition met

Problem: Regarding CCCCCCCCCCCCCC(=S)NCCCC[C@H](NC(=O)OCc1ccccc1)C(=O)Nc1ccccc1 , kindly confirm whether its growth is beneath 90%.
Result: Condition met

Problem: Regarding Clc1ccc2c(c1)-c1ccccc1C1=NCCN12 , kindly confirm whether its growth is beneath 90%.
Result: Condition met

Problem: Regarding CCCCn1cnc(-c2cc(-c3ccccc3)cc(C(F)(F)F)c2)n1 , kindly confirm whether its growth is beneath 90%.
Result: Condition not met

Problem: Regarding O=c1cc(N2CCOCC2)oc2c(-c3ccc4c(c3)OCCO4)csc12 , kindly confirm whether its growth is beneath 90%.
Result: Condition met

---

- System: UO-31 renal
- assay.text: NCI-60 one-dose screen, 48 h (100 = growth as untreated, 0 = no growth, -100 = all killed)
- condition.description: 10 µM unless noted
This is part of a sample that, as a whole, favours compounds with a hit. Of some 83,000 tested, about 20% had one in any assay.
measurement.kind: growth (%)
Dear colleague, please return just the value in %, with no unit written.

Problem: Output growth of O=C(Nc1ccc(Oc2ccc(NC(=O)Nc3ccccc3Cl)cc2)cc1)Nc1ccccc1Cl
Result: 20.1

Problem: Output growth of COc1cc(C)cc2oc3oc(=O)c(-c4csc(-c5cc6ccccc6oc5=O)n4)cc3c(=O)c12
Result: 88.6

Problem: Output growth of C/C=C(\C)C(C(=O)NC1CCCCC1)N(C(=O)C1CCc2cc(F)ccc2O1)c1ccc([N+](=O)[O-])cc1 (stereo not drawn)
Result: 69.1

Problem: Output growth of CC(=O)OC1Oc2ccccc2-c2oc3nc(=N)n(C)c-3cc21 (stereo not drawn)
Result: 88.6

Problem: Output growth of C#CC[C@@H]1C[C@]2(C)[C@H]3CC=C4[C@H]5[C@@H](C)[C@H](C)CC[C@]5(C(=O)NCCCCCCCCN)CC[C@@]4(C)[C@]3(C)CC[C@H]2C(C)(C)[C@H]1OC(C)=O
Result: 67.2

Problem: Output growth of O=C(Nc1ccc(Cl)c(C(F)(F)F)c1)c1ccc(Nc2ccc(Cl)nn2)cc1
Result: 0.31

Problem: Output growth of CC(=O)N1N=C(c2ccc(C)cc2)CC1c1cn(-c2ccccc2)nc1-c1cccc(Nc2ccnc3cc(Cl)ccc23)c1 (stereo not drawn)
Result: 77.1

Problem: Output growth of COc1cc(-c2nc(-c3nc4cc(C(=O)c5ccccc5)ccc4[nH]3)cc3c2[nH]c2ccccc23)cc(OC)c1OC
Result: 73.2

---

- Tested on: SK-OV-3 ovarian
- assay.text: NCI-60 one-dose screen, 48 h (100 = growth as untreated, 0 = no growth, -100 = all killed)
- condition.description: 10 µM unless noted
The panel holds about 83,000 compounds, 20% with a hit somewhere; the sample as a whole holds those more often.
measurement.kind: growth (%)
Dear colleague, please return just the value in %, with no unit written.

Problem: Output growth of C[C@@H]1C[C@H](N)C[C@H](c2ccncc2NC(=O)c2ccc(F)c(-c3c(F)cccc3F)n2)C1
Result: 62

Problem: Output growth of CCOCC(O)(c1ccc(Cl)cc1)c1ccc(Cl)cc1
Result: 105

Problem: Output growth of O=C1OCC2=C1C(c1cccc(Br)c1)c1cc3c(cc1N2CCO)OCCO3 (stereo unspecified)
Result: 32.3

Problem: Output growth of CN(C)c1ccc(/C=C(\C#N)c2nc3ccccc3n2C)cc1
Result: 34.8

Problem: Output growth of Cc1cc(-c2nnc(/C=C/c3ccc4c(c3)OCO4)o2)n[nH]1
Result: 80.6

Problem: Output growth of Nc1nc2c(c3ncccc13)C(c1ccccc1)Cc1ncccc1-2 (stereo unspecified)
Result: 87.3
